Quick reference: activity coefficient of the listed items.
# assay_procedure: activity coefficient (dimensionless); of the first substance listed, at infinite dilution; xn = mol fraction of the nth substance listed
# measurement_conditions: 318.15 K; 100 kPa; Liquid; Chromatography; x1 = 0
Reply: number alone, nothing else.

Examples with their reported activity coefficient follow.
[[record]]
compound = "Cc1ccccc1C [1,2-dimethylbenzene] + CCCC[n+]1ccc(C#N)cc1.O=S(=O)([N-]S(=O)(=O)C(F)(F)F)C(F)(F)F"
observed = 1.89

[[record]]
compound = "CCCCC [pentane] + CCCC[n+]1ccc(C#N)cc1.O=S(=O)([N-]S(=O)(=O)C(F)(F)F)C(F)(F)F"
observed = 24.2

[[record]]
compound = "CCC(C)O (configuration not stated) [butan-2-ol] + CCCC[n+]1ccc(C#N)cc1.O=S(=O)([N-]S(=O)(=O)C(F)(F)F)C(F)(F)F"
observed = 2.5

[[record]]
compound = "C1CCCC1 [cyclopentane] + CCCC[n+]1ccc(C#N)cc1.O=S(=O)([N-]S(=O)(=O)C(F)(F)F)C(F)(F)F"
observed = 11.6

[[record]]
compound = "O [water] + CCCC[n+]1ccc(C#N)cc1.O=S(=O)([N-]S(=O)(=O)C(F)(F)F)C(F)(F)F"
observed = 3.01


Please examine the following record next.
Exam item: For the compound C=CCCCCCCCC [1-decene] + CCCC[n+]1ccc(C#N)cc1.O=S(=O)([N-]S(=O)(=O)C(F)(F)F)C(F)(F)F , what activity coefficient is on record?
Marked response: 57.3

Entry source: the NIST ThermoML archive (doi:10.1016/j.jct.2016.01.017)
